These data points were gathered from paper PMC2879509.

target: MSL2-ΔPro/Bas (Drosophila melanogaster); assay: EMSA
pKd: −log10 of the molar value.
Quantity Name: pKd

Entry Sequence	Study Target	Observed
UGCGGCCAUCUCUUUCGUUUUGAUGUUUCUACGCCAUGUG / CACAUGGCGUAGAAACAUCAAAACGAAAGAGAUGGCCGCA [DBF12-L15 dsRNA 40 bp]	MSL2-ΔPro/Bas (Drosophila melanogaster)	7.43
